// data source = paper PMC10535379

# System: FMDV serotype A (NP05)
# Assay Method Text: microbe, parasite or virus in culture
# Measurement Parameters: Foot-and-mouth disease virus, BHK-21, read-out: EC50 Post Entry
Listed here are molecules together with their documented EC50.
Readout Label: EC50 (µM)

Line Notation | Value Units | Value
Oc1ccccc1-c1nc2c3ccccc3c3ccccc3c2[nH]1 | µM | 5.92
N#Cc1cc(-c2ccccc2)[nH]c1-c1nccc2ccccc12 | µM | 2.88

* * *

# Tested on: FMDV serotype A (NP05)
# Assay Method Text: in vitro
# Measurement Parameters: hamster
Documented selectivity ratio across a set of compounds
Readout Label: selectivity ratio

Line Notation | Value
N#Cc1cc(-c2ccccc2)[nH]c1-c1nccc2ccccc12 | 73.2
Oc1ccccc1-c1nc2c3ccccc3c3ccccc3c2[nH]1 | 11.1
